# experimental_protocol: Pharmacokinetic study in cannulated male Sprague-Dawley rats (serum and urine, HPLC)
# Type: in vivo, rat
# experimental_context: male, Sprague-Dawley, serum and urine; rat, oral 100 mg/kg, mean ± SEM
experimental_endpoint: CL renal (L/h/kg)
Numbers only, in L/h/kg.

Need CL renal, item COc1cc(/C=C/c2ccc(O)c(OC)c2)cc(OC)c1
0.01

====

# experimental_protocol: Pharmacokinetic study in cannulated male Sprague-Dawley rats (serum and urine, HPLC)
# Assay type: in vivo, rat
# experimental_context: male, Sprague-Dawley, serum and urine; rat, intravenous 10 mg/kg, mean ± SEM
experimental_endpoint: CL renal
Reply with a number, then the unit it belongs to.

Need CL renal, item COc1cc(/C=C/c2ccc(O)c(OC)c2)cc(OC)c1
12.7 mL/min/kg

====

# experimental_protocol: Pharmacokinetic study in cannulated male Sprague-Dawley rats (serum and urine, HPLC)
# Assay type: in vivo, rat
# experimental_context: male, Sprague-Dawley, serum; rat, PO 100 mg/kg, mean ± SEM, n = 4 (abstract)
experimental_endpoint: AUC (µg·h/mL)
Give bare numbers, in µg·h/mL.

Need AUC, item COc1cc(/C=C/c2ccc(O)c(OC)c2)cc(OC)c1
229

====

# experimental_protocol: Pharmacokinetic study in cannulated male Sprague-Dawley rats (serum and urine, HPLC)
# Type: in vivo, rat
# experimental_context: male, Sprague-Dawley, serum; rat, IV 10 mg/kg; below detectable concentrations; read-out: Serum concentration after 24 hours
experimental_endpoint: concentration at 24 h

Need concentration at 24 h, item COc1cc(/C=C/c2ccc(O)c(OC)c2)cc(OC)c1
< 50 ng/mL

====

# experimental_protocol: Pharmacokinetic study in cannulated male Sprague-Dawley rats (serum and urine, HPLC)
# Type: in vivo, rat
# experimental_context: male, Sprague-Dawley, serum; rat, intravenous 10 mg/kg, mean ± SEM; read-out: CLtotal (converted)
experimental_endpoint: clearance (mL/min/kg)
Answers are plain numbers, in mL/min/kg.

Need clearance, item COc1cc(/C=C/c2ccc(O)c(OC)c2)cc(OC)c1
797

====

# experimental_protocol: Pharmacokinetic study in cannulated male Sprague-Dawley rats (serum and urine, HPLC)
# Type: in vivo, rat
# experimental_context: male, Sprague-Dawley, serum; rat, intravenous 10 mg/kg, mean ± SEM
# Description: The HPLC system used was a Shimadzu HPLC (Kyoto, Japan), consisting of two LC-10A pumps, a SIL-10AF autoinjector, a SPD-M10A photodiode array detector, and a SCL-10A system controller. Data collection and integration were achieved using Shimadzu EZ Start Class VP (version 7.4) software. […] Male Sprague-Dawley rats (n = 8, average weight 200 g) were cannulated as described in the Animals and Surgical Procedures section. […] Samples were stored at −20°C until analyzed. […]
experimental_endpoint: MRT (h)
Numbers only, in h.

Need MRT, item COc1cc(/C=C/c2ccc(O)c(OC)c2)cc(OC)c1
26

====

# experimental_protocol: Pharmacokinetic study in cannulated male Sprague-Dawley rats (serum and urine, HPLC)
# Type: in vivo, rat
# experimental_context: male, Sprague-Dawley, serum; rat, oral 100 mg/kg, mean ± SEM; read-out: t 1/2 serum (converted)
# Protocol: The HPLC system used was a Shimadzu HPLC (Kyoto, Japan), consisting of two LC-10A pumps, a SIL-10AF autoinjector, a SPD-M10A photodiode array detector, and a SCL-10A system controller. Data collection and integration were achieved using Shimadzu EZ Start Class VP (version 7.4) software. […] Male Sprague-Dawley rats (n = 8, average weight 200 g) were cannulated as described in the Animals and Surgical Procedures section. […] Samples were stored at −20°C until analyzed. […]
experimental_endpoint: half-life (days)
Give bare numbers, in days.

Need half-life, item COc1cc(/C=C/c2ccc(O)c(OC)c2)cc(OC)c1 [3-methoxypterostilbene]
3.05
